- Assayed system: T1, compound 1 as a partial peptide of FGF-8 with the C terminal labeled with biotin (human, C terminal labeled with biotin)
- T1 construct: Captured on Sensor Chip SA (35 RU) for BIAcore 2000; also called compound 1 labeled with biotin; FGF-8 peptide
- T1 peptide: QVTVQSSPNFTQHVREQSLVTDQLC
- Method summary: BIAcore 2000, biotin-labeled compound 1 on SA chip (35 RU), antibody 16.7 µg/mL; dissociation hardly observed
Readout label: binding result

Query anti-FGF-8 neutralizing chimeric antibody KM3034 (antibody, V domains shown, expressed in CHO/DG44 cells; also called human chimeric antibody KM3034) VH: QVQLQQSGAEVARPGASVKLSCKASGYTFTDYYLNWVKQRSGQGLEWIGEIDPGSDSIYYNENLEGRATLTADKSSSTAYMQLNSLTSEDSAVYFCARYGYSRYDVRFVYWGQGTLVTVST VL: DVLMTQTPLSLPVSLGDQASISCRSSQSLVHSNGRTYLEWYLQKPGQSPKVLIYKVSNRISGVPDRFSGSGSGTDFTLKISRVEAEDLGVYFCFQGSHVPYTFGGGTKLEIK yields binding result of binds

The binder listed as anti-FGF-8 neutralizing CDR-grafted antibody HV0LV4-2/CHO (antibody, V domains shown, HV.0 + LV.4-2; CHO/DG44 cell-derived) VH: QVQLVQSGAEVKKPGASVKVSCKASGYTFTDYYLNWVRQAPGQGLEWMGEIDPGSDSIYYNENLEGRVTITADTSTSTAYMELSSLRSEDTAVYYCARYGYSRYDVRFVYWGQGTLVTVSS VL: DVVMTQSPLSLPVSLGEPASISCRSSQSLVHSNGRTYLEWYLQKPGQSPQLLIYKVSNRISGVPDRFSGSGSGTDFTLKISRVEAEDVGVYFCFQGSHVPYTFGQGTKVEIK shows binding result equal to binds

Measured binding result of anti-FGF-8 neutralizing CDR-grafted antibody HV0LV3-1/CHO (antibody, V domains shown, HV.0 + LV.3-1; also called KM8036) VH: QVQLVQSGAEVKKPGASVKVSCKASGYTFTDYYLNWVRQAPGQGLEWMGEIDPGSDSIYYNENLEGRVTITADTSTSTAYMELSSLRSEDTAVYYCARYGYSRYDVRFVYWGQGTLVTVSS VL: DVVMTQSPLSLPVTPGEPASISCRSSQSLVHSNGRTYLEWYLQKPGQSPQVLIYKVSNRISGVPDRFSGSGSGTDFTLKISRVEAEDVGVYFCFQGSHVPYTFGQGTKVEIK : binds
